experiment: Photochromic response on optical bench of naphthopyrans imbibed into polymer test samples; type: physicochemical; settings: homopolymer of diethylene glycol bis(allyl carbonate); 150 watt Xenon lamp, about one sun; twenty minutes exposure
VALUE_KIND: Δ OD at SATURATION
When you answer, write just the number.

### Prompt Please list Δ OD at SATURATION recorded for the compound COc1ccc(C2(c3ccccc3)C=Cc3c(ccc4ccccc34)O2)cc1 (stereo not shown) [Comparative Example 2]
### Response 0.25

### Prompt Please list Δ OD at SATURATION recorded for the compound COc1ccc(C2(c3ccc(OC)cc3C)C=Cc3c(ccc4ccccc34)O2)cc1 (stereo not shown) [Example 3]
### Response 1.35

### Prompt Please list Δ OD at SATURATION recorded for the compound COc1ccc(C2(c3ccccc3C)C=Cc3c(ccc4ccccc34)O2)cc1 (stereo not shown) [Example 4]
### Response 2.40

### Prompt Please list Δ OD at SATURATION recorded for the compound C1=CC(c2ccccc2)(c2ccccc2)Oc2c1ccc1ccccc21 [a., 2,2diphenyl-2H naphthol[1,2b]pyran]
### Response 1.37
